Test system: Ipomea purpurea
METHOD: Example B: post-emergence herbicidal application, pot test
Type: in vivo
PARTICULARS: 4000 g/ha, 576 h
MEASUREMENT_NAME: ACTIVITE DE POST-LEVEE IPO

Examples from the recorded data:
{"columns": ["ITEM_SMILES", "ACTIVITE DE POST-LEVEE IPO"],
 "data": [
  ["CN(C)S(=O)(=O)n1nc(C(C)(C)C)nc1-c1ncccc1C(=O)O", "3 (30 à 50)"],
  ["CCN(CC)S(=O)(=O)n1nc(-c2ccccc2)nc1-c1ncccc1C(=O)O", "2 (50 à 70)"],
  ["COC(=O)c1cccnc1-c1nc(-c2ccccc2)nn1S(=O)(=O)c1ccccc1Cl", "3 (30 à 50)"],
  ["CN(C)S(=O)(=O)n1nc(-c2cccc(Cl)c2)nc1-c1ncccc1C(=O)O", "3 (30 à 50)"],
  ["CN(C)S(=O)(=O)n1c(-c2ncccc2C(=O)O)nc2ccccc21", "4 (10 à 30)"],
  ["O=C(O)c1cccnc1-c1n[nH]c(-c2ccc(Cl)cc2Cl)n1", "4 (10 à 30)"]
]}

Batch of 2 molecules: report ACTIVITE DE POST-LEVEE IPO for each.
1. O=C(O)c1cccnc1-c1n[nH]c(C=Cc2ccccc2)n1
2. O=C(O)c1cccnc1-c1n[nH]c(-c2cc(Cl)cc(Cl)c2)n1

Result block:
3 (30 à 50)
3 (30 à 50)

Lab note: CN(C)S(=O)(=O)n1c(-c2ncccc2C(=O)O)nc2cc(Cl)ccc21 gave ACTIVITE DE POST-LEVEE IPO of 3 (30 à 50)
